Test system: B6C3F1 mice, ip Sarcoma M5076, median survival T/C
Experiment: NCI In Vivo Anticancer Drug Screen. Data for tumor model Sarcoma M5076 (intraperitoneal) in B6C3F1 mice
Conditions: endpoint: median survival time; dose: 200.0 mg/kg/injection; schedule: Q04DX004 (ip); vehicle: saline
Toxic doses and inconclusive results are not listed. The calls were made as follows: active = survival T/C of 150% or more; inactive = T/C below 125% in these data.
Outcome codes: 1.0 = active, 0.0 = inactive

[[record]]
compound = "CN(C)C=O"
group = 0.0

[[record]]
compound = "CC(NNC(=S)N(C)C1CCCCC1)c1cc2ccccc2cn1 (stereo unspecified)"
group = 0.0

[[record]]
compound = "COc1ccc(C[C@H](N)C(=O)NC2C(CO)OC(n3cnc4c(N(C)C)ncnc43)C2O)cc1 (stereo partly specified)"
group = 0.0

[[record]]
compound = "C1OC1CO[C@@H]1CO[C@H]2[C@@H]1OC[C@H]2OCC1CO1 (stereo partly specified)"
group = 1.0

[[record]]
compound = "Nc1ccn([C@@H](C=O)C[C@@H](C=O)CO)c(=O)n1"
group = 0.0

[[record]]
compound = "CN(CN1C(=O)CCC1=O)CN1C(=O)CCC1=O"
group = 0.0


* * *

Test system: B6C3F1 mice, ip Sarcoma M5076, median survival T/C
Test: NCI In Vivo Anticancer Drug Screen. Data for tumor model Sarcoma M5076 (intraperitoneal) in B6C3F1 mice
Conditions: endpoint: median survival time; dose: 6.25 mg/kg/injection; schedule: Q04DX004 (ip); vehicle: saline with Tween-80; higher = longer survival
Inconclusive results and toxic doses are left out.
readout name: T/C

[[record]]
compound = "CS(=O)(=O)OCCCCOS(C)(=O)=O"
result = "100 % of control"

[[record]]
compound = "OC1(c2cccc(Cl)c2)C2=NCCCN2c2ccccc21 (stereo unspecified)"
result = "102 % of control"

[[record]]
compound = "CCCCCCCC(=O)[O][Hg][CH2]C1COC([CH2][Hg][O]C(=O)CCCCCCC)CO1 (stereo unspecified)"
result = "95 % of control"

[[record]]
compound = "CC(C)CC(NC(=O)CF)C(=O)O (stereo unspecified)"
result = "95 % of control"

[[record]]
compound = "c1ccc2c(c1)oc1cc3c(cc12)n1nnnc1c1cccn31"
result = "95 % of control"

[[record]]
compound = "c1ccc2c(c1)oc1cc3c(cc12)ncc1cccn13"
result = "95 % of control"

[[record]]
compound = "CCCCNP1(NCCCC)=NP(NCCCC)(NCCCC)=NP(NCCCC)(NCCCC)=NP(NCCCC)(NCCCC)=N1"
result = "104 % of control"

[[record]]
compound = "O=C1C2CC=CCC2C(=O)N1SC(Cl)(Cl)Cl (stereo unspecified)"
result = "120 % of control"

[[record]]
compound = "Cc1ccc(C(=O)[O][Hg][CH2]C2COC([CH2][Hg][O]C(=O)c3ccc(C)cc3)CO2)cc1 (stereo unspecified)"
result = "99 % of control"

[[record]]
compound = "N#Cc1c(N)[nH]c2ccc(Sc3ccccc3)cc12"
result = "101 % of control"

[[record]]
compound = "O=C/C(Cl)=C(/Cl)C(=O)O"
result = "92 % of control"


* * *

Test system: B6C3F1 mice, ip Sarcoma M5076, median survival T/C
Experiment: NCI In Vivo Anticancer Drug Screen. Data for tumor model Sarcoma M5076 (intraperitoneal) in B6C3F1 mice
Settings: endpoint: median survival time; dose: 6.25 mg/kg/injection; schedule: Q04DX004 (ip); vehicle: saline with Tween-80
Inconclusive results and toxic doses are left out. How the source made its calls: active means survival T/C of 150% or more; inactive means T/C below 125% in these data.
Outcome codes: active, inactive

[[record]]
compound = "C=C(C)[C@H]1Cc2c(ccc3c2O[C@@H]2COc4cc(OC)c(OC)cc4[C@@H]2C3=O)O1"
group = "inactive"

[[record]]
compound = "CO[C@@]12[C@@H]3N[C@@H]3CN1C1=C(C(=O)C(N3CCCC3)=C(C)C1=O)[C@@H]2COC(N)=O"
group = "active"

[[record]]
compound = "CCOC(=O)/N=[N+](\\[O-])c1ccccc1"
group = "inactive"

[[record]]
compound = "O=C1C=CC(=CC=C2C=CN(CCCCCCCCCCCO)C=C2)C=C1"
group = "inactive"

[[record]]
compound = "COc1cccc2c1C(=O)C1=C(C2=O)c2c(O)cc(CO)cc2C(O)C1O (configuration not stated)"
group = "inactive"

[[record]]
compound = "Cc1cc(O)c2c(c1O)C(=O)C13C(=C2O)C(=O)C2C(O)C1C1C(O)C3C(=O)C3=C(O)c4c(O)cc(C)c(O)c4C(=O)C321 (configuration not stated)"
group = "inactive"

[[record]]
compound = "CC1/C=C/C=C/CC/C=C/C=C/C=C/C=C/C(OC2OC(C)C(O)C(N)C2O)CC2OC(CC(O)C(O)CCC(O)CC(O)CC(O)CC(=O)OC(C)C(C)C1O)CC(O)C2C(=O)O (configuration not stated)"
group = "inactive"


* * *

Tested on: B6C3F1 mice, ip Sarcoma M5076, median survival T/C
Assay: NCI In Vivo Anticancer Drug Screen. Data for tumor model Sarcoma M5076 (intraperitoneal) in B6C3F1 mice
Conditions: endpoint: median survival time; dose: 8.0 mg/kg/injection; schedule: Q04DX005 (ip); vehicle: saline
Procedure: The antitumor activity of compounds was measured in mice bearing transplantable tumors. Survival or tumor size were measured and the results are expressed as the measurement made in the treated group (T) divided by the measurement made in the vehicle treated control group (C). The tumor model used in this assay is Sarcoma M5076 (intraperitoneal) in B6C3F1 mice
Toxic doses and inconclusive results are not listed. The calls were made as follows: active = survival T/C of 150% or more; inactive = T/C below 125% in these data.
Possible outcomes: active, inactive

[[record]]
molecule = "OC(C1CO1)C(O)C1CO1 (centres undefined)"
group = "active"

[[record]]
molecule = "O=C(O)c1cccc2c1ccc1ccccc12"
group = "inactive"

[[record]]
molecule = "O=C1N[C@@H]([C@H]2CC[C@H](Cl)CN2)C(=O)N[C@H]1[C@H]1CC[C@H](Cl)CN1"
group = "active"

[[record]]
molecule = "COc1cc([C@@H]2c3cc4c(cc3[C@@H](OC3OC5COC(C)OC5C(O)C3O)[C@H]3COC(=O)[C@H]23)OCO4)cc(OC)c1O (some centres undefined)"
group = "active"


* * *

Tested on: B6C3F1 mice, ip Sarcoma M5076, median survival T/C
Test: NCI In Vivo Anticancer Drug Screen. Data for tumor model Sarcoma M5076 (intraperitoneal) in B6C3F1 mice
Details: endpoint: median survival time; dose: 600.0 mg/kg/injection; schedule: Q04DX004 (ip); vehicle: saline; higher = longer survival
Inconclusive results and toxic doses are left out.
readout name: T/C

[[record]]
molecule = "O=CC(O)C(O)C(O)C(O)CO (stereo unspecified)"
readout_name = "T/C"
result = "98 % of control"

[[record]]
molecule = "NC(Cn1ccc(=O)c(O)c1)C(=O)O (stereo unspecified)"
readout_name = "T/C"
result = "118 % of control"

[[record]]
molecule = "[N-]=[N+]=NCc1cnnn1C1OC(CO)C(O)C1O (stereo unspecified)"
readout_name = "T/C"
result = "103 % of control"

[[record]]
molecule = "NC(CCC(=O)NC(CS)C(=O)NCC(=O)O)C(=O)O (stereo unspecified)"
readout_name = "T/C"
result = "90 % of control"

[[record]]
molecule = "CC(=O)NCCSSCCCCS(=O)O"
readout_name = "T/C"
result = "104 % of control"

[[record]]
molecule = "O=C(NNC(=S)NC1OC(CO)C(O)C(O)C1O)c1cccc(C(=O)NNC(=S)NC2OC(CO)C(O)C(O)C2O)n1 (stereo unspecified)"
readout_name = "T/C"
result = "103 % of control"


* * *

Tested on: B6C3F1 mice, ip Sarcoma M5076, median survival T/C
Assay: NCI In Vivo Anticancer Drug Screen. Data for tumor model Sarcoma M5076 (intraperitoneal) in B6C3F1 mice
Settings: endpoint: median survival time; dose: 100.0 mg/kg/injection; schedule: Q04DX004 (ip); vehicle: saline with Tween-80; higher = longer survival
Toxic doses and inconclusive results are not listed.
Recorded T/C values for a group of compounds are listed next.
readout name: T/C

[[record]]
compound = "Cc1nc2cc[nH]n2c(=O)c1CCc1ccccc1"
readout_name = "T/C"
result = "94 % of control"

[[record]]
compound = "CN(C)CCNc1ccc(CO)c2sc3ccc(O)cc3c(=O)c12"
readout_name = "T/C"
result = "119 % of control"

[[record]]
compound = "CCOC(=O)C1=C(Nc2ccc(OC)cc2)C(N)=NC1=N"
readout_name = "T/C"
result = "99 % of control"

[[record]]
compound = "O=S1ON=C(C2CCC(C3=NOS(=O)O3)C2)O1 (configuration not stated)"
readout_name = "T/C"
result = "103 % of control"

[[record]]
compound = "OC1OCC(COc2ccc(Cl)cc2)OC1O (configuration not stated)"
readout_name = "T/C"
result = "114 % of control"

[[record]]
compound = "COc1cc2c(c3c1/c(=N/N)c1ccccc1n3C)C=CC(C)(C)O2"
readout_name = "T/C"
result = "89 % of control"

[[record]]
compound = "Cc1cc2cc3cc(C)c(N)cc3nc2cc1N"
readout_name = "T/C"
result = "113 % of control"

[[record]]
compound = "CC1=CC(C)(C)N=C2SC(COc3ccccc3)=NN12"
readout_name = "T/C"
result = "96 % of control"

[[record]]
compound = "Cc1[nH]c(=O)[nH]c(=O)c1C=O"
readout_name = "T/C"
result = "101 % of control"

[[record]]
compound = "Nc1ccc2c(c1)C1(CCC2)NC(=O)NC1=O (configuration not stated)"
readout_name = "T/C"
result = "96 % of control"

[[record]]
compound = "CCCC1CCC(=C2C(=O)CCC2=O)O1 (configuration not stated)"
readout_name = "T/C"
result = "96 % of control"

[[record]]
compound = "c1ccc(P(CCNCCP(c2ccccc2)c2ccccc2)c2ccccc2)cc1"
readout_name = "T/C"
result = "90 % of control"


These measurements were taken from PubChem BioAssay AID292.
